Let's look at some binders and their measured Limit of detection.
Target: T1, SARS-CoV-2 S1-RBD (Wuhan) (SARS-CoV-2 (Wuhan), UniProt P0DTC2 319-541)
T1 construct: domain: S1-RBD
Test: sandwich ELISA: biotin NRCoV2-02 VHH capture, antigen titrated, VHH-Fc detector
quantity.kind: Limit of detection (ng/mL)

1. NRCoV2-1d VHH-Fc (Fc fusion, bivalent VHH-Fc) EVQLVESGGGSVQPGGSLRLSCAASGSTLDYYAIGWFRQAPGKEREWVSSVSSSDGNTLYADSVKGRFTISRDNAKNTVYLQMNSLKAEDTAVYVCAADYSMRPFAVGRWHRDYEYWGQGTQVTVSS | 0.15
2. NRCoV2-07 VHH-Fc (Fc fusion, bivalent VHH-Fc) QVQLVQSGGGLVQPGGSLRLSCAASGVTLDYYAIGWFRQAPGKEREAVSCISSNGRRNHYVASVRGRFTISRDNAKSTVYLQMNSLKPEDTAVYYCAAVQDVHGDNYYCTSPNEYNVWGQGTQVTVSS | 0.08
3. NRCoV2-04 VHH-Fc (Fc fusion, bivalent VHH-Fc) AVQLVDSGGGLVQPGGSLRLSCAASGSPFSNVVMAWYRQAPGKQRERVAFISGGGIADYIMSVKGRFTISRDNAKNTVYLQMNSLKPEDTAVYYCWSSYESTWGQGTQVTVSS | 0.46
4. NRCoV2-11 VHH-Fc (Fc fusion, bivalent VHH-Fc) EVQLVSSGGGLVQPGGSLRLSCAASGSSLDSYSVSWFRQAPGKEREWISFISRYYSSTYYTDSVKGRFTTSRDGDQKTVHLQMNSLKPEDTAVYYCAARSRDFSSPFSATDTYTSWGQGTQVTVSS | 0.08
